property_measured: melting point

Some solved entries appear below for comparison.
molecule	result_value
COc1ccc(CN2Cc3cncn3C(c3ccc(-c4ccsc4)cc3)C2=O)cc1 (stereo unspecified)	162 to 164 °C
CC1=Nc2ccccc2CC(c2ccsc2)N1C (stereo unspecified)	113 to 117 °C

Problem: Field request: melting point | item: CC1(C)NC(=O)N(c2ccc([N+](=O)[O-])cc2C(F)(F)F)C1=O
Solution: 175 to 176 °C

Problem: Field request: melting point | item: CN(C)S(=O)(=O)c1ccc2c(c1)C(Cl)c1ccccc1C=C2 (stereo unspecified)
Solution: 140 to 144 °C

Problem: Field request: melting point | item: O=C(CCC#Cc1ccccn1)Nc1cccc(F)c1
Solution: 110 to 114 °C

Problem: Field request: melting point | item: CCOC(=O)c1ccc(I)cc1N
Solution: 51 to 53 °C

###

Property: melting point; scope: individual compounds

Some solved entries appear below for comparison.
compound	melting point
COc1ccc(Cl)cc1-c1c(N)c(=O)[nH]c2cc(C(F)(F)F)c(Cl)cc12	252 to 253 °C
COc1ncc(NS(=O)(=O)c2cccc(Cl)c2Cl)c(OC)n1	124 to 126 °C
O=c1n(CCCCN2CCN(c3cccc(Cl)c3)CC2)nc2n1-c1ccccc1OC2	132 to 134 °C
CC(=O)Nc1nc(-c2ccc(SCOC(C)=O)cc2)cs1	144 to 145 °C
Cc1cccc2oc3cc(Cl)ccc3c(=O)c12	111 to 113 °C
Cc1c(C)c2c(c(C)c1N)C(c1ccc(C(C)C)cc1)C(C)(C)O2 (stereo not given)	130 to 132 °C
COc1ncnc2c1C(c1cccc([N+](=O)[O-])c1)C(C(=O)OC(C)C)=C(C)N2 (stereo not given)	212 to 213 °C
N[C@@H](CS(=O)(=O)O)C(=O)O	273 to 275 °C
CC(C)(C)OC(=O)CN(CC(=O)O)CC(=O)OC(C)(C)C	76 to 82 °C

Read the next record carefully.
Problem: Field request: melting point | item: O=c1[nH]c2cccc(OCCNCc3ccc(Cl)cc3)c2[nH]c1=O
Solution: > 250 °C

###

Property: melting point; scope: individual compounds

Some solved entries appear below for comparison.
compound	melting point
CC(=O)Nc1ncc2cc(-c3c(Cl)cccc3Cl)c(NC(C)=O)nc2n1	223 to 225 °C
O=C1N(c2ccc(Cl)cc2)C(Cl)(Cl)C2CCCCC12Cl (centres undefined)	120 to 124 °C
COC(=O)c1cc2cc(OC)c(OC)cc2c(-c2cccnc2)c1C(=O)OC	95 to 96 °C
Cc1ncoc1CN1CCc2c(c3cccc(F)c3n2C)C1=O	158 to 161 °C
O=C(CCCl)Nc1cccc(NC(=O)Nc2ccc(N(CCCl)CCCl)cc2)c1	232 to 233 °C

Problem: Field request: melting point | item: COC(=O)c1ccc(-c2cc(-c3ccc(C(F)(F)F)cc3)on2)cc1
Solution: 183 to 184 °C

Problem: Field request: melting point | item: Cc1nc2c(O)cccc2c(=O)n1C1CCC(=O)NC1=O (centres undefined)
Solution: 266 to 268 °C

Problem: Field request: melting point | item: Cc1[nH]c(=O)c(-c2csc(-c3ccnc(NCC4CC4)c3)n2)cc1C(=O)NCC1CC1
Solution: > 260 °C

Problem: Field request: melting point | item: Cc1cc(C)c2c(c1)OC(C)(COc1ccc([N+](=O)[O-])cc1)CC2=O (centres undefined)
Solution: 86 to 88.5 °C
